subject.of.test: VAV1 (Homo sapiens, UniProt P15498+Q96SW2)
Construct: A heterozygous VAV1 C-terminal HiBiT knock-in pool was generated at Monte Rosa Therapeutics from a clonal Jurkat cell; endogenous in cells; host or cells: Jurkat clone stably expressing LgBiT, homozygous GSPT1-G575N; heterozygous VAV1-HiBiT knock-in pool
procedure.text: VAV1 degradation activity, VAV1-HiBiT knock-in Jurkat luminescence assay (Example A, Table 1)
Format: cell-based
particulars: Jurkat, VAV1-HiBiT knock-in Jurkat cells, luminescence read at 6 and 24 hours; read-out: VAV1 Dmax %
test.readout: Dmax (%)
One number for each entry, in %.

These solved cases illustrate the format of a correct answer.
Input: # input compound: Cc1ccc(=O)n(Cc2ccc(-c3cccc(C4CCC(=O)NC4=O)c3Cl)cc2)c1 (stereo not shown) ; wanted: its Dmax
Output: 95

Input: Reported Dmax for O=C1CCC(c2cccc(-c3ccc(N4CCN5CCCC5C4=O)cc3)c2Cl)C(=O)N1 (stereo not shown) : what is it?
Output: 93.8

Input: Which Dmax reading was recorded for the compound O=C1CCC(c2cccc(-c3ccc(Cc4ncco4)nc3)c2Cl)C(=O)N1 (stereo not shown) ?
Output: 72.6

Others:
Input: So what's the measured Dmax for this one? O=C1CCC(c2cccc(-c3ccc(N4CCCCC4=O)c(F)c3)c2Cl)C(=O)N1 (stereo not shown)
Output: 96.2

====

subject.of.test: VAV1 (Homo sapiens, UniProt P15498+Q96SW2)
Construct: A heterozygous VAV1 C-terminal HiBiT knock-in pool was generated at Monte Rosa Therapeutics from a clonal Jurkat cell; endogenous in cells; host or cells: Jurkat clone stably expressing LgBiT, homozygous GSPT1-G575N; heterozygous VAV1-HiBiT knock-in pool
procedure.text: VAV1 degradation activity, VAV1-HiBiT knock-in Jurkat luminescence assay (Example A, Table 1)
Assay type: cell-based
particulars: Jurkat, VAV1-HiBiT knock-in Jurkat cells, luminescence read at 6 and 24 hours; read-out: VAV1 Dmax %
test.readout: Dmax (%)
Give bare numbers, in %.

Input: # Dmax lookup, item O=C1CCC(c2cccc(-c3ccc(CN4CC5CC5C4=O)cc3)c2Cl)C(=O)N1 (centres unmarked)
Output: 93.1

Would you mind giving Dmax for every compound in the list below?
1. CC(Oc1ccccn1)c1ccc(-c2cccc(C3CCC(=O)NC3=O)c2Cl)cc1 (centres unmarked)
2. O=C1CCC(c2cccc(-c3cnc(Cc4ncco4)c(F)c3)c2Cl)C(=O)N1 (centres unmarked)
3. O=C1CCC(c2cccc(-c3ccc(N4C(=O)CC45CCOCC5)cc3)c2Cl)C(=O)N1 (centres unmarked)
4. O=C1CCC(c2cccc(-c3ccc(Cc4ncco4)cc3)c2Cl)C(=O)N1 (centres unmarked)

Output:
1. 90.2
2. 58.1
3. 45.2
4. 96.7

Dear colleague, could you please provide Dmax for the compounds listed below?
1. O=C1CCC(c2cccc(-c3ccc(N4Cc5cccnc5C4=O)cc3)c2Cl)C(=O)N1 (centres unmarked)
2. O=C1CCC(c2cccc(-c3ccc(N4C(=O)CC5CC54)cc3)c2Cl)C(=O)N1 (centres unmarked)
3. O=C1CCC(c2cccc(-c3ccc(Cc4ccncn4)cc3)c2Cl)C(=O)N1 (centres unmarked)
4. O=C1CCC(c2cccc(-c3ccc(N4Cc5ccccc5C4=O)cc3)c2Cl)C(=O)N1 (centres unmarked)

Output:
39.9
70.5
94.4
61

====

Field: DC50. Provide a value for each of the molecules that follow.
subject.of.test: VAV1 (Homo sapiens, UniProt P15498+Q96SW2)
Construct: A heterozygous VAV1 C-terminal HiBiT knock-in pool was generated at Monte Rosa Therapeutics from a clonal Jurkat cell; endogenous in cells; host or cells: Jurkat clone stably expressing LgBiT, homozygous GSPT1-G575N; heterozygous VAV1-HiBiT knock-in pool
procedure.text: VAV1 degradation activity, VAV1-HiBiT knock-in Jurkat luminescence assay (Example A, Table 1)
Format: cell-based
particulars: VAV1-HiBiT knock-in Jurkat cells, luminescence read at 6 and 24 hours; read-out: VAV1 DC50
One number for each entry, in nM.

Input: May I ask what DC50 has been recorded for O=C1CCC(c2cccc(-c3ccc(CN4C(=O)CCCC45CC5)cc3)c2Cl)C(=O)N1 (centres unmarked) ?
Output: 8.3

Input: Field request: DC50 | item: O=C1CCC(c2cccc(-c3ccc(C4(N5CCCCC5=O)CC4)cc3)c2Cl)C(=O)N1 (centres unmarked)
Output: 5770

Input: Which DC50 reading was recorded for the molecule CC1(C)CCN(Cc2ccc(-c3cccc(C4CCC(=O)NC4=O)c3Cl)cc2)C(=O)C1 (centres unmarked) ?
Output: 10.2

Input: Give its DC50 value. Item: O=C1CCC(c2cccc(-c3ccc(CN4Cc5ncccc5C4=O)cc3)c2Cl)C(=O)N1 (centres unmarked)
Output: 11.7

Input: Consider the molecule O=C1CCC(c2cccc(-c3ccc(S(=O)(=O)N4CCCC4)cc3)c2Cl)C(=O)N1 (centres unmarked) and give its measured DC50.
Output: 91.7

# map each molecule to its DC50
1. O=C1CCC(c2cccc(-c3ccc(NC(=O)N4CCCC4)cc3)c2Cl)C(=O)N1 (centres unmarked)
2. Cn1cnc(Cc2ccc(-c3cccc(C4CCC(=O)NC4=O)c3Cl)cc2)c1 (centres unmarked)
3. O=C1CCC(c2cccc(-c3ccc(-n4cccnc4=O)cc3)c2Cl)C(=O)N1 (centres unmarked)
4. O=C1CCC(c2cccc(-c3ccc(-n4ccc(F)cc4=O)cc3)c2Cl)C(=O)N1 (centres unmarked)
5. Cc1ccnc(Cc2ccc(-c3cccc(C4CCC(=O)NC4=O)c3Cl)cc2)n1 (centres unmarked)

Output:
1: 26.3; 2: 30.8; 3: 24.1; 4: 17.5; 5: 5.92

====

What Dmax was measured for each of the following?
subject.of.test: VAV1 (Homo sapiens, UniProt P15498+Q96SW2)
Construct: A heterozygous VAV1 C-terminal HiBiT knock-in pool was generated at Monte Rosa Therapeutics from a clonal Jurkat cell; endogenous in cells; host or cells: Jurkat clone stably expressing LgBiT, homozygous GSPT1-G575N; heterozygous VAV1-HiBiT knock-in pool
procedure.text: VAV1 degradation activity, VAV1-HiBiT knock-in Jurkat luminescence assay (Example A, Table 1)
Format: cell-based
particulars: Jurkat, VAV1-HiBiT knock-in Jurkat cells, luminescence read at 6 and 24 hours; read-out: VAV1 Dmax %

// worked examples, Dmax included
Input: Any idea what Dmax was measured for CC(Oc1ccc(-c2cccc(C3CCC(=O)NC3=O)c2Cl)cc1)c1ccn(C)n1 (centres unmarked) ?
Output: 88.1%

Input: Name the recorded Dmax for C[C@H]1COCC(=O)N1Cc1ccc(-c2cccc(C3CCC(=O)NC3=O)c2Cl)cc1 (some centres unmarked) .
Output: 88%

Input: Record request: Dmax value, item O=C1CCC(c2cccc(-c3ccc(N4C(=O)C[C@@H]5CCC[C@@H]54)cc3)c2Cl)C(=O)N1 (some centres unmarked)
Output: 89.3%

Input: Would you kindly share the measured Dmax for O=C1CCC(c2cccc(-c3ccc(CN4CCOCC4=O)cc3)c2Cl)C(=O)N1 (centres unmarked) ?
Output: 78%

Input: Could you tell me which Dmax is on file for Cc1nc(Cc2ccc(-c3cccc(C4CCC(=O)NC4=O)c3Cl)cc2)no1 (centres unmarked) ?
Output: 96.2%

Kindly give each listed record's Dmax.
1. O=C1CCC(c2cccc(-c3ccc(C(=O)N4CCCC4)cc3)c2Cl)C(=O)N1 (centres unmarked)
2. N#CC1(CN2C(=O)Cc3cc(-c4cccc(C5CCC(=O)NC5=O)c4Cl)ccc32)CC1 (centres unmarked)
3. O=C1CCC(c2cccc(-c3ccc(N4CCOC4=O)cc3)c2Cl)C(=O)N1 (centres unmarked)
4. CC1(C)CCC(=O)N1c1ccc(-c2cccc(C3CCC(=O)NC3=O)c2Cl)cc1 (centres unmarked)
5. O=C1CCC(c2cccc(-c3ccc(N4C(=O)CCC45CC5)nc3)c2Cl)C(=O)N1 (centres unmarked)
6. CCc1cc(-c2cccc(C3CCC(=O)NC3=O)c2Cl)ccc1N (centres unmarked)

Output:
1: 85.9%; 2: 71.2%; 3: 47.3%; 4: 97.5%; 5: 75.5%; 6: 96%

I have 3 molecules here; please give me Dmax for each one.
1. O=C1CCC(c2cccc(-c3ccc(CN4Cc5cnccc5C4=O)cc3)c2Cl)C(=O)N1 (centres unmarked)
2. O=C1CCC(c2cccc(-c3ccc(CC4COC4)cc3)c2Cl)C(=O)N1 (centres unmarked)
3. O=C1CCC(c2cccc(-c3ccc(CN4CC5CCCN5CC4=O)cc3)c2Cl)C(=O)N1 (centres unmarked)

Output:
1. 94.3%
2. 92%
3. 83.9%

Parameters: items (list). Returns: Dmax for each item.
1. O=C1CCC(c2cccc(-c3ccc(OCc4c[nH]cn4)cc3)c2Cl)C(=O)N1 (centres unmarked)
2. O=C1CCC(c2cccc(-c3ccc(CN4CCCCC4=O)cc3)c2Cl)C(=O)N1 (centres unmarked)
3. O=C1CCC(c2cccc(-c3ccc(Cc4cccs4)cc3)c2Cl)C(=O)N1 (centres unmarked)

Output:
87.3%
91.5%
98.8%

====

Provide the reported Dmax of each item.
subject.of.test: VAV1 (Homo sapiens, UniProt P15498+Q96SW2)
Construct: A heterozygous VAV1 C-terminal HiBiT knock-in pool was generated at Monte Rosa Therapeutics from a clonal Jurkat cell; endogenous in cells; host or cells: Jurkat clone stably expressing LgBiT, homozygous GSPT1-G575N; heterozygous VAV1-HiBiT knock-in pool
procedure.text: VAV1 degradation activity, VAV1-HiBiT knock-in Jurkat luminescence assay (Example A, Table 1)
Format: cell-based
particulars: Jurkat, VAV1-HiBiT knock-in Jurkat cells, luminescence read at 6 and 24 hours; read-out: VAV1 Dmax %, class

Input: Given the compound CC(=O)Nc1ccc(-c2cccc(C3CCC(=O)NC3=O)c2Cl)cc1 (stereo not drawn) [Compound 128] , what is its reported Dmax?
Output: 60 to 90%

Batch of 2 compounds: report Dmax for each.
1. O=C1CCC(c2cccc(-c3ccc(CN4C(=O)CCCC45CC5)cc3)c2Cl)C(=O)N1 (stereo not drawn) [Compound 294]
2. O=C1CCC(c2cccc(-c3ccc(C(=O)N4CCCC4)cc3)c2Cl)C(=O)N1 (stereo not drawn) [Compound 181]

Output:
> 90%
60 to 90%

Kindly give each listed record's Dmax.
1. O=C1CCC(c2cccc(-c3ccc(Cc4cnccn4)cc3)c2Cl)C(=O)N1 (stereo not drawn) [Compound 159]
2. O=C1CCC(c2cccc(-c3ccc(CCCn4ccccc4=O)cc3)c2Cl)C(=O)N1 (stereo not drawn) [Compound 178]
3. Cn1ccc(COc2ccc(-c3cccc([C@@H]4CCC(=O)NC4=O)c3Cl)cc2)n1 [Compound 209]
4. O=C1CCC(c2cccc(-c3ccc(CN4CCCOC4=O)nc3)c2Cl)C(=O)N1 (stereo not drawn) [Compound 431]
5. O=C1CCC(c2cccc(-c3cnc(N4C(=O)CCC45CCC5)c(F)c3)c2Cl)C(=O)N1 (stereo not drawn) [Compound 365]

Output:
1: > 90%; 2: 60 to 90%; 3: > 90%; 4: < 60%; 5: 60 to 90%

Hello, the source for this data is patent US12257247B2, in case you need it.
